Items are presented alongside their recorded Natural compound concentration range with no toxicity to HFF cells.
system: HFF cells; assay: Cytotoxicity assay (CCK-8); type: cell-based, Human; conditions: human, 24 h
result-type: Natural compound concentration range with no toxicity to HFF cells

CC1=CC(=O)C(C(C)C)CC1 (stereo not drawn) = 0.01 to 20 µg/mL
O=C(/C=C/c1ccc(O)c(O)c1)O[C@@H]1C[C@](O)(C(=O)O)C[C@@H](O)[C@H]1O = 0.01 to 400 µg/mL
Cc1ccc(C(C)C)c(O)c1 = 0.01 to 16 µg/mL
O=C(/C=C/c1ccc(O)cc1)c1ccc(O)cc1O = 0.01 to 4 µg/mL
CC1(C)O[C@H]2CC(=O)OC[C@]23[C@H]2CC[C@@]4(C)[C@H](c5ccoc5)OC(=O)[C@H]5O[C@]54[C@]2(C)C(=O)C[C@@H]13 = 0.01 to 80 µg/mL
CCCCCCCCCCCCCC(=O)OC [Methyl myristate, methyl myristate] = 0.01 to 160 µg/mL
